Source: ChEMBL document CHEMBL1201862

- Test system: SNB-75
- ASSAY: NCI tumour cell line growth inhibition, 48 h
Activity calls are given as the source filed them. No stated cut-off is given here; in the data, active = GI50 up to about 1.1 µM and inactive = higher.
Listing: GI50 of selected compounds

Examples with their reported GI50 follow.
Using known records, supply GI50 for Cc1cc(N(CCC#N)CCC#N)ccc1/C=C(\NC(=O)/C=C/c1ccccc1)C(=O)NN
24.7 µM (inactive)

For NC(=O)c1cccc(/N=c2\oc3ccc(Br)cc3cc2-c2nc3ccccc3[nH]2)c1 , write its GI50.
1.47 µM (inactive)

Provide measured GI50 value, entry: C[C@@H](NC(C#N)c1ccco1)c1ccccc1 (stereo partly specified)
> 100 µM (inactive)

Give recorded GI50. CCn1c(=O)ccc2ccc(N(CCO)CCO)nc21
> 100 µM (inactive)

For the compound CCN(CC)c1ccc2cc(-c3csc(-c4ccc(N(C)C)cc4)n3)c(=O)oc2c1 , report GI50.
23.1 µM (inactive)

Continuing:
Give recorded GI50. CCOC(=N)CC(=O)NC(C)c1ccccc1 (stereo unspecified)
> 100 µM (inactive)

----------
- Tested on: SN12C
- ASSAY: NCI tumour cell line growth inhibition, 48 h
The source made the active and inactive calls. No stated cut-off is given here; in the data, active = GI50 up to about 1.1 µM and inactive = higher.
ATTRIBUTE MEASURED: GI50

Worked set:
Indicate the recorded GI50 value for this compound: N=C(c1ccccc1)N(c1ccccc1)c1ccccc1
22.5 µM (inactive)

Look up and state reported GI50 for Oc1ccc(/C=C\c2nnc(/C=C\c3ccc(O)c(O)c3)s2)cc1O
5.98 µM (inactive)

Give a short answer stating reported GI50 for O=C(O)Cc1ccccc1CCc1ccccc1Cl .
> 100 µM (inactive)

More entries:
Give the value of GI50 reported for the following: O=C(Nc1ccc([N+](=O)[O-])cc1C(=O)O)c1ccc([N+](=O)[O-])cc1
41.4 µM (inactive)

Write down GI50 measured for item CC(C)(C)c1cc(C2c3cc4c(cc3OC(O)(CO)C2C(=O)O)OCO4)cc(C(C)(C)C)c1O.CC(C)(C)c1cc(C2c3cc4c(cc3OC3(O)COC(=O)C23)OCO4)cc(C(C)(C)C)c1O (stereo not given)
9.04 µM (inactive)

Name the recorded GI50 of the compound listed here: CCOC(=O)c1c(C)n(C)c2c1cc(O)c1[nH]c3c(c12)CCCC3
24.2 µM (inactive)

Output measured GI50 for this item: O=S1(=O)CCC2=CC(C(F)(F)F)=CC(C(F)(F)F)=CN21
1.55 µM (inactive)

Consider the compound CC1(C)O[C@H](C(=O)O)[C@@H](C(=O)O)O1 and give its recorded GI50.
> 100 µM (inactive)

Entry O=C(CC(=O)CC(O)(C(F)(F)F)C(F)(F)F)CC(O)(C(F)(F)F)C(F)(F)F needs its GI50 filled in; supply it.
> 10 µM (inactive)

Please give the documented GI50 of O=c1[nH]cnc2c(COCCO)c[nH]c12
> 100 µM (inactive)

----------
- Test system: UO-31
- ASSAY: NCI tumour cell line growth inhibition, 48 h
Active and inactive are the calls of the source. Rule as the data show it: active = GI50 up to about 1.1 µM and inactive = higher.
Allowed answers: YES = active, NO = inactive

Please review the entries below; each comes with its answer.
# lookup: test call for O=[N+]([O-])c1ccc(CNC2=NNS(=O)(=O)c3ccccc32)cc1
NO

Could you check what this test reported for COC(=O)C1(C(=O)OC)CC2=C(S(=O)(=O)c3ccccc3)C[C@H](C#N)[C@H]2C1 ?
NO

Please let me know the test result on file for CCOC(=O)c1c2ccc(/C=C/C(=O)OC)ccc-2c(C(=O)OCC)c1N .
NO

Dear colleague, could you share the recorded outcome for CN(C)CCNC1=CC(=O)c2nc3ccccc3c3ccnc1c23 when you have a moment?
NO

# fetch the recorded call for COC(=O)C1=C(O)C(C(=O)OC)[C@]2(O)[C@H](C(=O)OC)[C@H]1C[C@@H](c1cccc(OC)c1)[C@H]2C(=O)OC (stereo not given in full) here
NO

Next:
What is the recorded call for this molecule in the test? CCCCCNC(=O)CCCCCCCCCCCNC(=O)CCCCCCCCCCN1C=CC(=CC=C2C=CC(=O)C=C2)C=C1
NO

----------
- System: NCI-H460
- ASSAY: NCI tumour cell line growth inhibition, 48 h
Activity calls are given as the source filed them. Rule as the data show it: active = GI50 up to about 1.1 µM and inactive = higher.
Your response should consist of one outcome taken from True = active, False = inactive

Here's what some known entries look like.
Field: outcome | Entry: Nc1ncnc2c1ncn2[C@@H]1C[C@@H]1CO
False

Kindly provide the recorded test outcome for the following molecule: COc1cc(Nc2nc3cc(C(F)(F)F)ccc3nc2C)cc(OC)c1OC
False

Please indicate how the test categorized OCC1(CNc2cc(Cl)ncn2)CCC1 .
False

Given CC(=O)O[C@@]1(C)[C@@H](C)C(=O)O[C@@H]2CCN3CC=C(COC(=O)[C@]1(C)O)[C@H]23 , state the outcome it received in this test.
False

Any idea what this test logged for Cc1cc(S(=O)(=O)Nc2nc(N)n[nH]2)c(SCC(=O)O)cc1Cl ?
False

Further cases:
What did this assay record as the result for COc1ccc2oc(S(=O)(=O)N3CC(CCl)c4ccc([N+](=O)[O-])cc43)cc2c1 (centres undefined) ?
True

Hey, what did the test say about CC(C)/C(Cl)=N\OC(=O)Nc1ccccc1F ?
False

----------
- Test system: ACHN
- ASSAY: NCI tumour cell line growth inhibition, 48 h
Active and inactive are the calls of the source. Cut-off read from the data, not from the text of the source: active = GI50 up to about 1.1 µM and inactive = higher.
Response enum: 1.0 = active, 0.0 = inactive

Examples with answers:
Which outcome was entered for the molecule CCCCNC(=S)Nc1nc(C(=O)NNC(=S)NCC)cs1 in this test?
0.0

What call does the record list for CC1CCCc2c(CC3CC(=O)NC(=O)C3)n[nH]c21 (stereo not drawn) ?
0.0

Status in this test for CN(C)C(=S)/N=c1\ss/c(=N\C(=S)N(C)C)n1C1CCCCC1 ?
0.0

Fill in: this test's call for COc1cc(-c2ccccc2)c(OC)cc1CCl is ___
0.0

Hi, sorry to bother you, what did the test record for O=C(Cn1c(=O)oc2ccc(C(=O)c3ccc(F)cc3)cc21)c1ccccc1 ?
0.0

Field: outcome | Entry: N#CCCN(CCC#N)c1ccc(/C=C2\N=C(c3cc([N+](=O)[O-])ccc3Cl)N(NC(=O)CC(=O)Nc3ccccc3Cl)C2=O)cc1
0.0

New cases:
Please share the test call associated with C=C1CC(CC(=O)C(C)CC2CC(=C)C(=O)O2)OC1=O (stereo not drawn) .
0.0

# lookup: test call for O=c1[nH]cnc2c1ncn2[C@@H]1C[C@H]1CO
0.0

What did this assay record as the result for C/C(O)=C/C(=O)c1[nH]c(C(=O)O)cc1C1CCN(Cc2ccccc2)C1=O (stereo not drawn) ?
0.0

----------
- Tested on: Hs-578T
- ASSAY: NCI tumour cell line growth inhibition, 48 h
Activity calls are given as the source filed them. Cut-off read from the data, not from the text of the source: active = GI50 up to about 1.1 µM and inactive = higher.
Response enum: active, inactive

For O=C(O)C(Cc1ccccc1-c1ccccc1)C(=O)O , which call appears in the assay record?
inactive

Returns: the outcome recorded for O=C(O)Cn1cnc2c(O)nc(Nc3ccccc3)nc21 in this assay.
inactive

Any idea what this test logged for COc1ccc2oc(S(=O)(=O)N3CC(CCl)c4ccc([N+](=O)[O-])cc43)cc2c1 (configuration not stated) ?
active

Name the outcome recorded for Cc1ccc(S(=O)(=O)CNC(=O)C(O)(O)C(F)(F)F)cc1 in the assay.
inactive

Hey, what did the test say about N#Cc1c(N2CCCC2)nsc1Nc1ccccc1 ?
inactive

----------
- Test system: M14
- ASSAY: NCI tumour cell line growth inhibition, 48 h
Activity calls are given as the source filed them. Rule as the data show it: active = GI50 up to about 1.1 µM and inactive = higher.
Allowed answers: Y for active, N for inactive

# count of solved cases: 10
Could you kindly confirm the outcome this assay logged for COc1cc(NC(C)=O)ccc1C(=O)N/N=C/c1ccc(Cl)cc1Cl ?
N

Which outcome did this test record for the molecule CN(C)/C=C/C(=CC=[N+](C)C)/C=C/N(C)C.[O-][Cl+3]([O-])([O-])[O-] ?
N

Please share the test call associated with [N-]=[N+]=NC[C@H]1OCO[C@H](CN=[N+]=[N-])[C@@H](OCCOCCCl)[C@@H]1OCCOCCCl .
N

# outcome recorded in this test, key = c1ccc2c(c1)[nH]c1c2nc2ccccn21
N

Per the assay record, what outcome was assigned to CC(=O)OC1=C(CC(C)(C)C)C(=O)c2ccccc2C1=O ?
N

Lab log entry: O=C1C(=O)N(C(=O)c2ccc(Cl)c(Cl)c2)c2ccc(Cl)cc21 — outcome as called in the assay?
N

Short answer needed: outcome of this test for COC(=O)C1=CC2C(=O)OC1CC2C#N (stereo unspecified) ?
N

Given COCN(CCC1=CCCCC1)C(=O)OC , state the outcome it received in this test.
N

Call for entry Cc1cc2[nH]c3[nH]c(=O)[nH]c(=O)c3c2cc1C :
N

Please state the recorded outcome for this molecule: CN(C)CCNC1=CC(=O)c2nc3ccccc3c3ccnc1c23
N

More entries:
Hey, what did the test say about C[C@H]1C(=O)c2c(cc(O)c(C3OC(CO)C(O)C(O)C3O)c2O)OC1c1ccc(O)c(O)c1 (stereo partly specified) ?
N

Hi, do you know how C[C@@H](NC(C#N)c1ccco1)c1ccccc1 (stereo partly specified) came out in this test?
N

Look up the recorded call for COC(=O)c1c(C)cc2c(c1O)C1(O)C(=O)c3cc4c(c(O)c3C(=O)C1(OC)C(O)C2)C(=O)C=C(NC1OC(C)C(OC)C(O)C1OC)C4=O (stereo unspecified) in this test.
Y

I'd appreciate the recorded outcome for CCCCNc1nc2ccccc2c2c1ncn2CC(C)C from this test.
N

I'd appreciate the recorded outcome for CC(=O)OCC1OC(OC2C(COC(C)=O)OC(Sc3ccccc3C)C(OC(C)=O)C2OC(C)=O)C(OC(C)=O)C(OC(C)=O)C1OC(C)=O (stereo unspecified) from this test.
N

Please let me know the test result on file for COc1ccc2c(c1)c(=O)c1c(NCCCN(C)CCCNc3ccc4c(=O)n(CCN(C)C)c(=O)n5c6ccc(OC)cc6c(=O)c3c45)ccc3c(=O)n(CCN(C)C)c(=O)n2c31 .
Y

Please let me know the test result on file for Cc1cc2nc(C=C(C(F)(F)F)C(F)(F)F)oc2cc1C .
N

Record lookup: outcome of this test for O=C(O)Cc1ccccc1CCc1ccccc1Cl ?
N

I would be grateful if you could indicate the recorded call for O=C1C(c2ccccc2)=C(O)c2cccc3cccc1c23 .
N

What did the test return for O=C(Nc1cc(Cl)cc(Cl)c1)/C(Cc1nc2ccccc2nc1O)=N/NC(=O)c1ccncc1 ?
N

Test call, this molecule: CC1(C)N=C(c2ccccn2)C(c2ccccn2)=NC1(C)C
N
